targetOfAssay: CaM (Bos taurus)
Construct: made in house; host or cells: E. coli BL21 (DE3)
testProtocol: Pull-down assay with immobilized protein and LSM libraries
Format: binding, bovine
conditionSummary: H12 library; 1:2 stoichiometry assumed; read-out: Surface mapping KD (apparent)
outcomeMeasure: pKd
Scale: negative log10 of molar concentration, which is what pKd denotes.

Some solved cases for reference:
- NC(=O)C[C@@H](CC(=O)N[C@H]1CCC[C@@H]1C(=O)N[C@H]1CCC[C@@H]1C(N)=O)NC(=O)[C@H]1CCC[C@@H]1NC(=O)[C@H]1CCC[C@@H]1NC(=O)C[C@H](CO)NC(=O)[C@H]1CCC[C@@H]1NC(=O)[C@H]1CCC[C@@H]1N [H12 SN]: 3.31
- NC(=O)[C@H]1CCC[C@@H]1NC(=O)[C@H]1CCC[C@@H]1NC(=O)C[C@H](Cc1ccc(O)cc1)NC(=O)[C@H]1CCC[C@@H]1NC(=O)[C@H]1CCC[C@@H]1NC(=O)C[C@H](CO)NC(=O)[C@H]1CCC[C@@H]1NC(=O)[C@H]1CCC[C@@H]1N [H12 SY]: 3.45

GET /values?readout=pKd&item= C[C@@H](O)[C@@H](CC(=O)N[C@H]1CCC[C@@H]1C(=O)N[C@H]1CCC[C@@H]1C(=O)N[C@H](CC(=O)N[C@H]1CCC[C@@H]1C(=O)N[C@H]1CCC[C@@H]1C(N)=O)Cc1ccc(O)cc1)NC(=O)[C@H]1CCC[C@@H]1NC(=O)[C@H]1CCC[C@@H]1N [H12 TY]
3.88

GET /values?readout=pKd&item= CC[C@H](C)[C@@H](CC(=O)N[C@H]1CCC[C@@H]1C(=O)N[C@H]1CCC[C@@H]1C(=O)N[C@H](CC(=O)N[C@H]1CCC[C@@H]1C(=O)N[C@H]1CCC[C@@H]1C(N)=O)CC(C)C)NC(=O)[C@H]1CCC[C@@H]1NC(=O)[C@H]1CCC[C@@H]1N [H12 IL]
4.17

###

targetOfAssay: Gal-1 (Homo sapiens, UniProt P09382)
Construct: made in house; host or cells: E. coli BL21(DE3)
Sequence (P09382 whole entry): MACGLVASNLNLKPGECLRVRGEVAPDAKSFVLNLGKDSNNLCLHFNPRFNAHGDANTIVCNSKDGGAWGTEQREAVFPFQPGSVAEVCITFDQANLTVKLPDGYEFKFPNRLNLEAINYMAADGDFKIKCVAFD
testProtocol: Competition pull-down with lactose
Format: binding
conditionSummary: H14 library; lactose 10 mM; read-out: Surface mapping KD (apparent), competition
outcomeMeasure: Kd (µM)
Give the quantity in µM, number only.

Some solved cases for reference:
* NCCCC[C@@H](CC(=O)N[C@H]1CCCC[C@@H]1C(N)=O)NC(=O)[C@H]1CCCC[C@@H]1NC(=O)[C@H]1CCCC[C@@H]1NC(=O)C[C@H](CCCCN)NC(=O)[C@H]1CCCC[C@@H]1N | 298
* C[C@@H](O)[C@@H](CC(=O)N[C@H]1CCCC[C@@H]1C(N)=O)NC(=O)[C@H]1CCCC[C@@H]1NC(=O)[C@H]1CCCC[C@@H]1NC(=O)C[C@H](CC(=O)O)NC(=O)[C@H]1CCCC[C@@H]1N | 282
* C[C@@H](O)[C@@H](CC(=O)N[C@H]1CCCC[C@@H]1C(N)=O)NC(=O)[C@H]1CCCC[C@@H]1NC(=O)[C@H]1CCCC[C@@H]1NC(=O)C[C@H](CC(N)=O)NC(=O)[C@H]1CCCC[C@@H]1N | 500
* CC[C@H](C)[C@@H](CC(=O)N[C@H]1CCCC[C@@H]1C(N)=O)NC(=O)[C@H]1CCCC[C@@H]1NC(=O)[C@H]1CCCC[C@@H]1NC(=O)C[C@@H](NC(=O)[C@H]1CCCC[C@@H]1N)[C@@H](C)CC | 50

Read the next record carefully.
GET /values?readout=Kd&item= NC(=O)[C@H]1CCCC[C@@H]1NC(=O)C[C@H](Cc1ccc(O)cc1)NC(=O)[C@H]1CCCC[C@@H]1NC(=O)[C@H]1CCCC[C@@H]1NC(=O)C[C@H](Cc1ccccc1)NC(=O)[C@H]1CCCC[C@@H]1N
395

###

targetOfAssay: CaM (Bos taurus, UniProt P62157)
Construct: made in house; host or cells: E. coli BL21 (DE3)
testProtocol: Competition pull-down with native ligand TRPV1-Ct15
Format: binding, bovine
conditionSummary: H14 library; competitor peptide 200 µM; read-out: Surface mapping KD (apparent), competition
pKd values, listed per item
Scale: negative log10 of molar concentration, which is what pKd denotes.

* CSCC[C@@H](CC(=O)N[C@H]1CCCC[C@@H]1C(N)=O)NC(=O)[C@H]1CCCC[C@@H]1NC(=O)[C@H]1CCCC[C@@H]1NC(=O)C[C@H](Cc1c[nH]c2ccccc12)NC(=O)[C@H]1CCCC[C@@H]1N | 3.60
* N=C(N)NCCC[C@@H](CC(=O)N[C@H]1CCCC[C@@H]1C(N)=O)NC(=O)[C@H]1CCCC[C@@H]1NC(=O)[C@H]1CCCC[C@@H]1NC(=O)C[C@H](Cc1c[nH]c2ccccc12)NC(=O)[C@H]1CCCC[C@@H]1N | 3.78
* NC(=O)C[C@@H](CC(=O)N[C@H]1CCCC[C@@H]1C(=O)N[C@H]1CCCC[C@@H]1C(=O)N[C@H](CC(=O)N[C@H]1CCCC[C@@H]1C(N)=O)Cc1ccccc1)NC(=O)[C@H]1CCCC[C@@H]1N | 3.47

Could you share what pKd was measured for C[C@@H](CC(=O)N[C@H]1CCCC[C@@H]1C(=O)N[C@H]1CCCC[C@@H]1C(=O)N[C@H](CC(=O)N[C@H]1CCCC[C@@H]1C(N)=O)Cc1c[nH]c2ccccc12)NC(=O)[C@H]1CCCC[C@@H]1N , tested on CaM (Bos taurus, UniProt P62157)?
3.53

###

targetOfAssay: RecQ-WH (Escherichia coli)
Construct: coding for residues 408– 523 of E. coli RecQ; made in house; host or cells: E. coli BL21(DE3)
Sequence (P15043 408-523): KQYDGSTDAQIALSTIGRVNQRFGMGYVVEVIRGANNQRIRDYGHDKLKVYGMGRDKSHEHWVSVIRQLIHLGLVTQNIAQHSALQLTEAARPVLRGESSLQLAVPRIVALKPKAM
testProtocol: Competition pull-down with native ligand SSB-Ct8
Format: binding, E. coli
conditionSummary: H14 library; competitor peptide 200 µM; read-out: Surface mapping KD (apparent), competition
pKd values, listed per item
Scale: negative log10 of molar concentration, which is what pKd denotes.

- NC(=O)[C@H]1CCCC[C@@H]1NC(=O)C[C@H](Cc1ccc(O)cc1)NC(=O)[C@H]1CCCC[C@@H]1NC(=O)[C@H]1CCCC[C@@H]1NC(=O)C[C@H](Cc1ccccc1)NC(=O)[C@H]1CCCC[C@@H]1N [H14 FY]: 3.64

Read the next record carefully.
GET /values?readout=pKd&item= CC(C)[C@@H](CC(=O)N[C@H]1CCCC[C@@H]1C(=O)N[C@H]1CCCC[C@@H]1C(=O)N[C@H](CC(=O)N[C@H]1CCCC[C@@H]1C(N)=O)Cc1c[nH]c2ccccc12)NC(=O)[C@H]1CCCC[C@@H]1N [H14 VW]
3.34

###

targetOfAssay: Gal-1 (Homo sapiens, UniProt P09382)
Construct: made in house; host or cells: E. coli BL21(DE3)
testProtocol: Pull-down assay with immobilized protein and LSM libraries
Format: binding
conditionSummary: H12 library; 1:1 binding assumed; read-out: Surface mapping KD (apparent)
pKd values, listed per item
Scale: negative log10 of molar concentration, which is what pKd denotes.

Some solved cases for reference:
• CSCC[C@@H](CC(=O)N[C@H]1CCC[C@@H]1C(=O)N[C@H]1CCC[C@@H]1C(=O)N[C@@H](CCC(N)=O)CC(=O)N[C@H]1CCC[C@@H]1C(=O)N[C@H]1CCC[C@@H]1C(N)=O)NC(=O)[C@H]1CCC[C@@H]1NC(=O)[C@H]1CCC[C@@H]1N = 3.76
• N=C(N)NCCC[C@@H](CC(=O)N[C@H]1CCC[C@@H]1C(=O)N[C@H]1CCC[C@@H]1C(N)=O)NC(=O)[C@H]1CCC[C@@H]1NC(=O)[C@H]1CCC[C@@H]1NC(=O)C[C@H](Cc1ccccc1)NC(=O)[C@H]1CCC[C@@H]1NC(=O)[C@H]1CCC[C@@H]1N = 3.85
• NC(=O)C[C@@H](CC(=O)N[C@H]1CCC[C@@H]1C(=O)N[C@H]1CCC[C@@H]1C(N)=O)NC(=O)[C@H]1CCC[C@@H]1NC(=O)[C@H]1CCC[C@@H]1NC(=O)C[C@H](Cc1ccc(O)cc1)NC(=O)[C@H]1CCC[C@@H]1NC(=O)[C@H]1CCC[C@@H]1N = 3.74

Read the next record carefully.
Could you share what pKd was measured for NCCCC[C@@H](CC(=O)N[C@H]1CCC[C@@H]1C(=O)N[C@H]1CCC[C@@H]1C(N)=O)NC(=O)[C@H]1CCC[C@@H]1NC(=O)[C@H]1CCC[C@@H]1NC(=O)C[C@H](Cc1c[nH]c2ccccc12)NC(=O)[C@H]1CCC[C@@H]1NC(=O)[C@H]1CCC[C@@H]1N , tested on Gal-1 (Homo sapiens, UniProt P09382)?
3.58

###

Kd values, listed per item
targetOfAssay: S100A4 (Homo sapiens, UniProt P26447)
Construct: made in house; host or cells: Escherichia coli BL21(DE3)
Sequence (P26447 whole entry): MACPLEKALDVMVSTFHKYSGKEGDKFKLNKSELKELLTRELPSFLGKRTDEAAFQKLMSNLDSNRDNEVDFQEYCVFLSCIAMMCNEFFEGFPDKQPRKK
testProtocol: Pull-down assay with immobilized protein and LSM libraries
Format: binding
conditionSummary: H14 library; 1:1 binding assumed; read-out: Surface mapping KD (apparent)
Give the quantity in µM, number only.

Some solved cases for reference:
- NC(=O)CC[C@@H](CC(=O)N[C@H]1CCCC[C@@H]1C(N)=O)NC(=O)[C@H]1CCCC[C@@H]1NC(=O)[C@H]1CCCC[C@@H]1NC(=O)C[C@H](Cc1ccccc1)NC(=O)[C@H]1CCCC[C@@H]1N [H14 FQ]: 377
- CC(C)C[C@@H](CC(=O)N[C@H]1CCCC[C@@H]1C(N)=O)NC(=O)[C@H]1CCCC[C@@H]1NC(=O)[C@H]1CCCC[C@@H]1NC(=O)C[C@@H](NC(=O)[C@H]1CCCC[C@@H]1N)C(C)C [H14 VL]: 3

Read the next record carefully.
Could you share what Kd was measured for CC(C)C[C@@H](CC(=O)N[C@H]1CCCC[C@@H]1C(=O)N[C@H]1CCCC[C@@H]1C(=O)N[C@H](CC(=O)N[C@H]1CCCC[C@@H]1C(N)=O)Cc1ccc(O)cc1)NC(=O)[C@H]1CCCC[C@@H]1N [H14 LY] , tested on S100A4 (Homo sapiens, UniProt P26447)?
26
